// values below are reported IC50
Target: recombinant TEAD1 protein central pocket (Homo sapiens (Human))
Sequence (P28347 whole entry): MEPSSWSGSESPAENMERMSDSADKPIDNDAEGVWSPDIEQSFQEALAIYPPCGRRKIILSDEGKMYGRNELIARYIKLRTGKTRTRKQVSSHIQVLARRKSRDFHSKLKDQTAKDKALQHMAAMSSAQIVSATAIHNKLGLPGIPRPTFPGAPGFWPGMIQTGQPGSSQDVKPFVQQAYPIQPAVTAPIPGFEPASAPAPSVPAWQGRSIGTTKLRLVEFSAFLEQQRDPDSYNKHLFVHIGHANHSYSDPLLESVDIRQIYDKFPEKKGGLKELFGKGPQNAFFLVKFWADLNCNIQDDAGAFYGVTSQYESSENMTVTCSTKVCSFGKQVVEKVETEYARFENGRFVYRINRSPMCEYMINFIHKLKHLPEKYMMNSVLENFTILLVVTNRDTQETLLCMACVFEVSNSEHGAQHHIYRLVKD
Assay: Competitive thiol binding assay (CPM assay), TEAD1
Settings: 150 nM recombinant TEAD protein, 150 nM CPM

Molecule	IC50, nM
CP(C)(=O)c1ccc(Nc2ccc(C(F)(F)F)cc2)c(-c2nc(OC3COC3)cs2)c1	170
O=P1(c2ccc(Nc3ccc(C(F)(F)F)cc3)c(-c3ncccn3)c2)CC(CO)C1 (stereo not shown)	200
CP(C)(=O)c1ccc(NC2CCC(F)(F)CC2)c(-c2nccc(OC3COC3)n2)c1	690
CCP(=O)(CC)c1ccc(Nc2ccc(C(F)(F)F)cc2)c(-c2cn(C)cn2)c1	340
CNS(=O)(=O)c1ccc(Nc2ccc(C(F)(F)F)cc2)c(-c2cn(C)cn2)c1 [VT103, reference compound]	1200
CCP(=O)(CC)c1ccc(Nc2ccc(C(F)(F)F)cc2)c(-c2nccc(OC3COC3)n2)c1	140
CP(C)(=O)c1ccc(Nc2ccc(S(F)(F)(F)(F)F)cc2)c(-c2nccc(OC3COC3)n2)c1	190
CP(C)(=O)c1ccc(NCc2ccc(C(F)(F)F)cc2)c(-c2nccc(OC3COC3)n2)c1	290
CP(C)(=O)c1cc(-c2nccc(OC3COC3)n2)c(Nc2ccc(C(F)(F)F)cc2)s1	180
CP(C)(=O)c1ccc(Nc2ccc(C(F)(F)F)cc2)c(-c2nccc(OC3CCOC3)n2)c1 (stereo not shown)	160
